# assayed_system: recombinant DYRK1A kinase (Homo sapiens (Human), UniProt Q13627)
# test_method_notes: DYRK1A kinase assay (Ser/Thr 18 peptide Z-lyte FRET assay)
# condition_info: recombinant DYRK1A 0.25 µg/mL, ATP 15 µM, Ser/Thr peptide 18 4 µM, one hour at room temperature; table head prints EC50, method says IC50
readout_label: EC50 (nM)

Worked cases, answers included:
{"columns": ["given_smiles", "units_text", "reported_measurement"],
 "data": [
  ["Cc1nc2ccc(-c3ccn4nc(N[C@H]5CC[C@@H](O)CC5)ncc34)nc2n1CC(F)F", "nM", 6],
  ["COCCO[C@H]1CC[C@H](Nc2ncc3c(-c4cnc5nc(C)n(CC(F)F)c5c4)ccn3n2)CC1", "nM", 28],
  ["Cc1nc2ccc(-c3ccn4nc(NC5CCC(F)(F)CC5)ncc34)nc2n1CC1CNC1", "nM", 131],
  ["Cc1nc2ccc(-c3ccn4nc(N[C@H]5CC[C@@H](CN6CCN(C)CC6)CC5)ncc34)nc2n1CC(F)F", "nM", 6],
  ["Cc1nc2ccc(-c3ccn4nc(NC5CCN(C6COC6)CC5)ncc34)nc2n1CC(F)F", "nM", 6],
  ["Cc1nc2ccc(-c3ccn4nc(NCC(C)(C)F)ncc34)nc2n1C(C)C", "nM", 5]
]}

(I) CC(=O)N[C@]1(C)C[C@@H](Nc2ncc3c(-c4ccn5nccc5c4)ccn3n2)C1
(II) [2H]C([2H])([2H])O[C@H]1CC[C@@H](Nc2ncc3c(-c4cnc5nccn5c4)ccn3n2)CC1
Lookup: // compare measured EC50 between I and II ; output the lower one Bench note: the answer is the label of the chosen record.
Found: I

###

# assayed_system: recombinant DYRK1A kinase (Homo sapiens (Human), UniProt Q13627)
# test_method_notes: DYRK1A kinase assay (Ser/Thr 18 peptide Z-lyte FRET assay)
# condition_info: recombinant DYRK1A 0.25 µg/mL, ATP 15 µM, Ser/Thr peptide 18 4 µM, one hour at room temperature; table head prints EC50, method says IC50
readout_label: EC50 (nM)

Worked cases, answers included:
{"columns": ["given_smiles", "EC50 [nM]"],
 "data": [
  ["Cc1nc2ccc(-c3ccn4nc(N[C@@H]5CN(C6COC6)C[C@@H]5F)ncc34)nc2n1CC(F)F", 1],
  ["Cc1nc2ccc(-c3ccn4nc(N[C@H]5CC[C@@H](C(=O)N6CC(F)(F)C6)CC5)ncc34)nc2n1CC(F)F", 3],
  ["Cc1nc2ccc(-c3ccn4nc(N[C@H]5C[C@](C)(O)C5)ncc34)nc2n1CC(F)F", 3],
  ["Cc1nc2ncc(-c3ccn4nc(N[C@H]5CC[C@](C)(O)CC5)ncc34)cc2n1CC(F)F", 2],
  ["Cc1nc2ccc(-c3ccn4nc(N[C@H]5CC[C@@H](OC(F)(F)F)CC5)ncc34)nc2n1CC(F)F", 26],
  ["CCO[C@H]1CC[C@@H](Nc2ncc3c(-c4ccc5nc(C)n(CC(F)F)c5n4)ccn3n2)CC1", 3],
  ["Cc1nc2ccc(-c3ccn4nc(N[C@@H]5CCOC[C@H]5O)ncc34)nc2n1CC(F)F", 33],
  ["Cc1nc2ccc(-c3ccn4nc(N[C@@H]5CCN(C)C[C@@H]5F)ncc34)nc2n1CC(F)F", 5],
  ["Cc1nc2ccc(-c3ccn4nc(NC5CCC6(CC5)OCCO6)ncc34)nc2n1CC(F)F", 5],
  ["COCCO[C@H]1CC[C@@H](Nc2ncc3c(-c4cnc5nccn5c4)ccn3n2)CC1", 6]
]}

(I) Cc1nc2ccc(-c3ccn4nc(NC5CCC(F)(F)CC5)ncc34)nc2n1CCF
(II) C[C@]1(O)CC[C@@H](Nc2ncc3c(-c4cnc5ncccc5c4)ccn3n2)CC1
Lookup: Form field 'greater EC50' accepts I or II ; which applies? Bench note: the answer is the label of the chosen record.
Found: I

(A) CO[C@H]1CC[C@@H](Nc2ncc3c(-c4cnc5nc(C)n(CC(F)F)c5c4)ccn3n2)CC1
(B) CCC(=O)N1CCC(Nc2ncc3c(-c4ccc5nc(C)n(CC(F)F)c5n4)ccn3n2)CC1
Lookup: // compare measured EC50 between A and B ; output the lower one Bench note: the answer is the label of the chosen record.
Found: A

(A) CO[C@H]1C[C@@H](Nc2ncc3c(-c4ccc5nccnc5c4)ccn3n2)C1
(B) Cc1nc2ncc(-c3ccn4nc(NC5CCC(F)(F)CC5)ncc34)cc2n1CC(F)F
Lookup: // compare measured EC50 between A and B ; output the lower one Bench note: the answer is the label of the chosen record.
Found: B
(B: 4 nM, A: 6 nM)
